The origin of these recorded values is PubChem BioAssay (NCI).

# System: K-562 leukemia
# METHOD: NCI tumour cell line growth inhibition, 48 h
The following molecules are shown together with reported TGI values.
ATTRIBUTE MEASURED: TGI

[[record]]
molecule = "Clc1cccc(Cl)c1C(Nc1nncs1)Nc1nncs1"
observed_measurement = "> 100 µM"

[[record]]
molecule = "Cn1cc(C2=C(c3cn(C)c4cc(C(=O)O)ccc34)C(=O)NC2=O)c2ccccc21"
observed_measurement = "> 25 µM"

[[record]]
molecule = "Nc1ccc2nc3ccc(=O)cc-3n(-c3ccccc3)c2c1"
observed_measurement = "> 100 µM"

[[record]]
molecule = "CCN(CC)c1ncnc2c1ncn2CCNC(CO)(CO)CO"
observed_measurement = "> 100 µM"

[[record]]
molecule = "COC(=O)C1CCC(=O)C(Sc2ccccc2)C1 (stereo not given)"
observed_measurement = "> 100 µM"

[[record]]
molecule = "CN1CCN(Cc2ccc(NC(=O)c3cnc(F)c(C#Cc4cnc(N)c5ncccc45)c3)cc2C(F)(F)F)CC1"
observed_measurement = "0.675 µM"

[[record]]
molecule = "O=CC(NC(=O)N(CCCl)N=O)C(O)C(O)C(O)CO (stereo not given)"
observed_measurement = "> 1250 µM"

[[record]]
molecule = "Cc1nc2nnnn2c2c1C(=O)Nc1ccccc1N2"
observed_measurement = "> 100 µM"

[[record]]
molecule = "O=Cc1ccc(-c2nccc3c2[nH]c2ccccc23)o1"
observed_measurement = "> 100 µM"

[[record]]
molecule = "COC(=O)CCC(C)[C@H]1CCC2C3C(C[C@H](OC(C)=O)[C@@]21C)[C@@]1(C)CCC2(C[C@H]1C[C@H]3OC(C)=O)OOC1(CCCCCCC1)OO2 (stereo not given in full)"
observed_measurement = "> 100 µM"

[[record]]
molecule = "Clc1ccc(C(c2ccc(Cl)cc2)c2cncnc2)cc1"
observed_measurement = "> 100 µM"

[[record]]
molecule = "COC(=O)C(Cc1c[nH]c2ccccc12)NC(=O)C(Cc1c[nH]c2ccccc12)NC(=O)OCc1ccccc1 (stereo not given)"
observed_measurement = "56.6 µM"

[[record]]
molecule = "NS(=O)(=O)N(c1cc(C(F)(F)F)cc(C(F)(F)F)c1)C1CCN(Cc2ccc(C(F)(F)F)cc2)CC1"
observed_measurement = "10.3 µM"

[[record]]
molecule = "COc1ccc(N2C(=O)C3c4[nH]c5ccc(OC)cc5c4C4CCC(C(C)C)CC4C3C2=O)cc1 (stereo not given)"
observed_measurement = "> 31.6 µM"

[[record]]
molecule = "CC[C@@]1(O)C(=O)OCc2c1cc1n(c2=O)Cc2cc3c([N+](=O)[O-])c(OC)ccc3nc2-1"
observed_measurement = "> 20.4 µM"

[[record]]
molecule = "Cc1nnc([S-])o1.[Au+].c1ccc([PH+](c2ccccc2)c2ccccc2)cc1"
observed_measurement = "> 100 µM"

[[record]]
molecule = "O=C(CC1(O)C(=O)Nc2ccc([N+](=O)[O-])cc21)c1ccc2ccccc2c1 (stereo not given)"
observed_measurement = "> 100 µM"

[[record]]
molecule = "CC(NC(=O)CNP(=O)(c1ccccc1)c1ccccc1)C(=O)NC(Cc1ccccc1)C(=O)OCc1ccccc1 (stereo not given)"
observed_measurement = "> 10 µM"

[[record]]
molecule = "CN=c1oc2ccccc2cc1C(N)=O"
observed_measurement = "> 100 µM"

[[record]]
molecule = "O=C(NC1CCCCC1)NS(=O)(=O)c1ccc(-n2nc3c(c2-c2cccs2)Cc2ccccc2-3)cc1"
observed_measurement = "35 µM"

